Reference source for all entries: paper PMC5540273

Attribute: %Inh
# Tested on: MRCKA
# cond: concentration: 1 μM, replicates: in singlicate; n = 1;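 note: KINOMEscan kinase panel screen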
Numbers only; they are read as %.

CNc1nc(-c2ccc3c(N)n[nH]c3c2)cc(N2C[C@@H](C(=O)Nc3ccccc3)CC[C@H]2C)n1
10
Fc1ccc(-c2nc3n(c2-c2ccncc2)CCS3)cc1
2

With those in mind, consider the next molecule.
Query (molecule): Cn1cncc1C(=O)NC1CCN(c2ccnc(Nc3ccc(F)cc3)n2)C1 (stereo not drawn) ; field requested: %Inh
2

---

# System: STK16
# cond: concentration: 1 μM, replicates: in singlicate; n = 1
measurementKind: %Inh (%)
Numbers only; they are read as %.

Here are 5 compounds together with their reported answers.
Cc1ccc(-c2nc(Nc3ccncc3)c3ccccc3n2)s1
12
c1ccc(-c2ccnc3[nH]ccc23)cc1
44
CNc1nc(-c2ccc3c(N)n[nH]c3c2)cc(N2C[C@@H](C(=O)NC3CCCCC3)OC[C@H]2C)n1
16
O=C(Nc1n[nH]c2nc(-c3cccs3)c(Br)cc12)C1CCCC1
23
Cc1ccc(NC(=O)Nc2ccccc2F)cc1-c1ccc(C(=O)Nc2ccncc2)cc1
11

Query (compound): O=C(Nc1n[nH]c2nc(-c3ccco3)c(Br)cc12)C1CCN(Cc2ccccc2)C1.O=C(O)[C@H](O)[C@@H](O)C(=O)O (stereo not shown) ; field requested: %Inh
57

Then COc1ccc(-c2coc3ccc(-c4nnc(C)o4)cc23)cc1 ?
21
